Attribution: paper PMC5941314

# tgt: T1, Ube2D2 (UniProt P62837 1-147)
# T1 construct: Ube2D2, ubiquitin-conjugating enzyme E2 D2; also called wtUbe2D2; wild-type Ube2D2; source: E. coli Rossetta2 (DE3), purified (ion exchange, SEC)
# test.details: ITC; ZNRF1 construct (10–30 µM) in the cell, E2 in the syringe; 25°C; 20 mM sodium phosphate pH 8.0, 150 mM NaCl; single site model
# study.conditions: both partners purified
observable: Kd
Answer with the number, then the unit.

Given the binder ZNRF1^CTD (C-terminal domain of ZNRF1, residues 139–227) (domain or fragment, UniProt Q8ND25 139-227, looked up, ZNRF1, RING E3 ubiquitin ligase, residues 139-227 of the full-length protein (ZnF and RING domains); also called ZNRF1 C-terminal domain; ZRNF1^CTD; source: E. coli Rossetta2 (DE3), purified (HisTrap, SEC)) SHSGFKCPICSKSVASDEMEMHFIMCLSKPRLSYNDDVLTKDAGECVICLEELLQGDTIARLPCLCIYHKSCIDSWFEVNRSCPEHPAD , what is its reported Kd? 1130 nM
